procedure.text: BET inhibitor-based combinations targeting novel dependencies in MECOM-rearranged (r) AML: OCI-AML3 cell line (AID 2202232); further: nearly all actives have a fitted effect of over 35% in size; further: potency means the concentration at half of the fitted maximal effect
condition.parameters: CellTiter-Glo luminescence, 48 h; OCI-AML3 viability; series mostly up to 46 µM
Results filed as inconclusive are left out. The source made the active and inactive calls. The call rests on the fitted dose curve; in most records, active means well fitted inhibition curve with a large enough effect; inconclusive means small, poorly fitted or top-dose-only effect; inactive means no such curve, though single readings can be large or run the other way. Residues, ends and D or L forms follow the SMILES beside them.
value.type: Potency

Some solved cases for reference:
molecule	Potency
COC(=O)[C@H](Cc1ccccc1)NC(=O)[C@@H](N)CC(=O)O (H-Asp-Phe-OMe)	inactive
Fc1cc(-c2cccc3ncc(-c4cnn(C5CCNCC5)c4)nc23)cc(F)c1CN1CCOCC1	11.8 µM (active)
C=CC(=O)Nc1cccc(Nc2nc(Nc3ccc(OCCOC)cc3)ncc2F)c1	14.8 µM (active)
N[C@@H](CC(=O)N1CCn2c(nnc2C(F)(F)F)C1)Cc1cc(F)c(F)cc1F	inactive
CCOc1cc2c(c(F)c1OCC)C(=N)N(CC(=O)c1cc(N3CCOCC3)c(OC)c(C(C)(C)C)c1)C2	16.6 µM (active)
C[C@@H]1CCN(C(=O)N2CCCC2)C[C@@H]1N(C)c1ncnc2[nH]ccc12	inactive
C[C@H](Nc1ncnc2nc[nH]c12)c1cc2cccc(Cl)c2c(=O)n1-c1ccccc1	0.934 µM (active)
Cc1nn(Cc2ccccc2Cl)c(C)c1CN(C)CC(O)COc1ccc(Cl)cc1 (centres undefined)	16.6 µM (active)

Specify Potency for CNC1CCC(N(Cc2cccc(-c3ccncc3)c2)C(=O)c2sc3c(F)ccc(F)c3c2Cl)CC1 (centres undefined) and stop.
16.6 µM (active)

---

assayed.system: Retinaldehyde dehydrogenase 3 (Homo sapiens)
procedure.text: qHTS for Inhibitors of the Aldehyde Dehydrogenase Family (ALDH1A3) Confirmatory screens (AID 2061311); further: nearly all actives have a fitted effect of over 60% in size
condition.parameters: ALDH inhibition qHTS; series mostly up to 46 µM
Records with an inconclusive call do not appear. Activity calls are given as the source filed them. The call rests on the fitted dose curve; in most records, active means well fitted inhibition curve with a large enough effect; inconclusive means small, poorly fitted or top-dose-only effect; inactive means no such curve, though single readings can be large or run the other way.
Give your call using only these classes: 1.0 (active), 0.0 (inactive)

Take a look at these entries with their results.
molecule	assigned.category
Cc1onc(-c2c(Cl)cccc2Cl)c1C(=O)N[C@@H]1C(=O)N2[C@@H]1SC(C)(C)[C@@H]2C(=O)O	0.0
Cc1ccc(S(=O)(=O)NC(=O)NN2CCCCCC2)cc1	0.0
O=C(O)c1n[nH]c2c1C[C@H]1C[C@@H]21	0.0

What outcome does the record of this test show for CCOc1ccc(NC(=O)Cn2c(Nc3cc(C)cc(C)c3)nc(C)cc2=O)cc1 ?
0.0

What outcome does the record of this test show for CCOC(=O)C1CCN(c2ccc(NCc3ccc(-c4ccc(C#N)cc4)o3)cc2)CC1 ?
1.0

What outcome does the record of this test show for COc1ccc(-c2csc(N3CCC(C(N)=O)CC3)n2)cc1 ?
0.0

What outcome does the record of this test show for COc1ccc(CC2NCCc3c2[nH]c2ccc(C)cc32)cc1OC (stereo unspecified) ?
0.0

What outcome does the record of this test show for CN(C)c1cccc(-c2csc(N3CCC(C(N)=O)CC3)n2)c1 ?
1.0

What outcome does the record of this test show for N#Cc1c(-c2ccc(C(=O)c3ccc(O)cc3)cc2)no[n+]1[O-] ?
1.0

What outcome does the record of this test show for NC(=O)C1CCN(c2ncc(-c3cccc(N4CCOCC4)c3)s2)CC1 ?
0.0

What outcome does the record of this test show for COc1cc(O)c2c(c1)/C=C/C[C@H](O)[C@H](O)C(=O)/C=C\C[C@H](C)OC2=O ?
1.0
